experiment: Plasma pharmacokinetics after a single subcutaneous administration of LEN; format: in vivo, rhesus macaques; settings: male, outbred Indian-origin, rhesus monkey, plasma, subcutaneous, 10 mg/kg, Plasma LEN (Mean), 10 mg/kg sc, week 3 post dose
OBSERVATION TYPE: concentration at 3 weeks (nM)
The response must be a number in nM with no trailing unit.

### Prompt For the molecule CC(C)(C#Cc1ccc(-c2ccc(Cl)c3c(NS(C)(=O)=O)nn(CC(F)(F)F)c23)c([C@H](Cc2cc(F)cc(F)c2)NC(=O)Cn2nc(C(F)(F)F)c3c2C(F)(F)[C@@H]2C[C@H]32)n1)S(C)(=O)=O [LEN, Lenacapavir] , give its reported concentration at 3 weeks.
### Response 11.3

* * *

assay: Plasma pharmacokinetics after a single subcutaneous administration of LEN; format: in vivo, rhesus macaques; settings: male, Indian-origin (outbred), rhesus monkey, plasma, subcutaneous, 75 mg/kg, Plasma LEN, animal V426, 75 mg/kg, week 3 post challenge
OBSERVATION TYPE: concentration at 3 weeks post challenge (nM)
The response must be a number in nM with no trailing unit.

### Prompt For the compound "CC(C)(C#Cc1ccc(-c2ccc(Cl)c3c(NS(C)(=O)=O)nn(CC(F)(F)F)c23)c([C@H](Cc2cc(F)cc(F)c2)NC(=O)Cn2nc(C(F)(F)F)c3c2C(F)(F)[C@@H]2C[C@H]32)n1)S(C)(=O)=O" , give its reported concentration at 3 weeks post challenge.
### Response 144

* * *

experiment: Plasma pharmacokinetics after a single subcutaneous administration of LEN; type: in vivo, rhesus macaques; details: male, Indian-origin (outbred), rhesus monkey, plasma, subcutaneous, 50 mg/kg, Plasma LEN (Mean), 50 mg/kg sc, week 11 post dose
OBSERVATION TYPE: concentration at 11 week (nM)
The response must be a number in nM with no trailing unit.

### Prompt For the molecule "CC(C)(C#Cc1ccc(-c2ccc(Cl)c3c(NS(C)(=O)=O)nn(CC(F)(F)F)c23)c([C@H](Cc2cc(F)cc(F)c2)NC(=O)Cn2nc(C(F)(F)F)c3c2C(F)(F)[C@@H]2C[C@H]32)n1)S(C)(=O)=O" , give its reported concentration at 11 week.
### Response 45.5

* * *

experiment: Plasma pharmacokinetics after a single subcutaneous administration of LEN; type: in vivo, rhesus macaques; conditions: male, Indian-origin (outbred), rhesus monkey, plasma, subcutaneous, 10 mg/kg, Plasma LEN (Mean), 10 mg/kg sc, week 11 post dose
OBSERVATION TYPE: concentration at 11 week (nM)
The response must be a number in nM with no trailing unit.

### Prompt For the compound CC(C)(C#Cc1ccc(-c2ccc(Cl)c3c(NS(C)(=O)=O)nn(CC(F)(F)F)c23)c([C@H](Cc2cc(F)cc(F)c2)NC(=O)Cn2nc(C(F)(F)F)c3c2C(F)(F)[C@@H]2C[C@H]32)n1)S(C)(=O)=O [LEN, Lenacapavir] , give its reported concentration at 11 week.
### Response 5.96

* * *

test: Plasma pharmacokinetics after a single subcutaneous administration of LEN; assay type: in vivo, rhesus macaques; conditions: male, Indian-origin, outbred, rhesus monkey, plasma, subcutaneous, 20 mg/kg, Plasma LEN (Mean), 20 mg/kg sc, week 2 post dose
OBSERVATION TYPE: concentration at 2 week
Record the result as number plus unit.

### Prompt For the compound CC(C)(C#Cc1ccc(-c2ccc(Cl)c3c(NS(C)(=O)=O)nn(CC(F)(F)F)c23)c([C@H](Cc2cc(F)cc(F)c2)NC(=O)Cn2nc(C(F)(F)F)c3c2C(F)(F)[C@@H]2C[C@H]32)n1)S(C)(=O)=O [LEN, Lenacapavir] , give its reported concentration at 2 week.
### Response 16.6 nM

* * *

experiment: Plasma pharmacokinetics after a single subcutaneous administration of LEN; type: in vivo, rhesus macaques; details: male, Indian-origin (outbred), rhesus monkey, plasma, subcutaneous, 5 mg/kg, Plasma LEN (Mean), 5 mg/kg sc, week 8 post dose
OBSERVATION TYPE: concentration at 8 week (nM)
The response must be a number in nM with no trailing unit.

### Prompt For the compound "CC(C)(C#Cc1ccc(-c2ccc(Cl)c3c(NS(C)(=O)=O)nn(CC(F)(F)F)c23)c([C@H](Cc2cc(F)cc(F)c2)NC(=O)Cn2nc(C(F)(F)F)c3c2C(F)(F)[C@@H]2C[C@H]32)n1)S(C)(=O)=O" , give its reported concentration at 8 week.
### Response 4.42

* * *

assay: Plasma pharmacokinetics after a single subcutaneous administration of LEN; type: in vivo, rhesus macaques; conditions: male, Indian-origin (outbred), rhesus monkey, plasma, subcutaneous, 5 mg/kg, Plasma LEN (Mean), 5 mg/kg sc, week 14 post dose
OBSERVATION TYPE: concentration at 14 week (nM)
The response must be a number in nM with no trailing unit.

### Prompt For the molecule "CC(C)(C#Cc1ccc(-c2ccc(Cl)c3c(NS(C)(=O)=O)nn(CC(F)(F)F)c23)c([C@H](Cc2cc(F)cc(F)c2)NC(=O)Cn2nc(C(F)(F)F)c3c2C(F)(F)[C@@H]2C[C@H]32)n1)S(C)(=O)=O" , give its reported concentration at 14 week.
### Response 1.45

* * *

experiment: Plasma pharmacokinetics after a single subcutaneous administration of LEN; type: in vivo, rhesus macaques; details: male, Indian-origin, outbred, rhesus monkey, plasma, subcutaneous, 50 mg/kg, Plasma LEN (Mean), 50 mg/kg sc, week 19 post dose
OBSERVATION TYPE: concentration at 19 week

### Prompt For the compound "CC(C)(C#Cc1ccc(-c2ccc(Cl)c3c(NS(C)(=O)=O)nn(CC(F)(F)F)c23)c([C@H](Cc2cc(F)cc(F)c2)NC(=O)Cn2nc(C(F)(F)F)c3c2C(F)(F)[C@@H]2C[C@H]32)n1)S(C)(=O)=O" , give its reported concentration at 19 week.
### Response 11.1 nM

* * *

Assay: Plasma pharmacokinetics after a single subcutaneous administration of LEN
Assay type: in vivo, rhesus macaques
Conditions: male, Indian-origin, outbred, rhesus monkey, plasma, subcutaneous, 75 mg/kg, Plasma LEN (Mean), 75 mg/kg sc, week 0.14 post dose
Method: All animals were housed at Bioqual Inc. For the in vivo SHIV stock titration study, 8 untreated outbred Indian-origin male rhesus macaques aged 3–5 years were challenged intrarectally per round for a total of 5 challenge rounds using increasing virus doses ranging from 0.625 to 100 TCID50, with the 100 TCID50 round performed twice for increased resolution (Supplemental Table 2). Plasma viral load was measured to confirm the infection status. […]
OBSERVATION TYPE: concentration at 0.14 week (nM)
The response must be a number in nM with no trailing unit.

### Prompt For the molecule "CC(C)(C#Cc1ccc(-c2ccc(Cl)c3c(NS(C)(=O)=O)nn(CC(F)(F)F)c23)c([C@H](Cc2cc(F)cc(F)c2)NC(=O)Cn2nc(C(F)(F)F)c3c2C(F)(F)[C@@H]2C[C@H]32)n1)S(C)(=O)=O" , give its reported concentration at 0.14 week.
### Response 498

* * *

experiment: Plasma pharmacokinetics after a single subcutaneous administration of LEN; format: in vivo, rhesus macaques; conditions: male, Indian-origin, outbred, rhesus monkey, plasma, subcutaneous, 10 mg/kg, Plasma LEN (Mean), 10 mg/kg sc, week 1 post dose
OBSERVATION TYPE: concentration at 1 week (nM)
The response must be a number in nM with no trailing unit.

### Prompt For the compound "CC(C)(C#Cc1ccc(-c2ccc(Cl)c3c(NS(C)(=O)=O)nn(CC(F)(F)F)c23)c([C@H](Cc2cc(F)cc(F)c2)NC(=O)Cn2nc(C(F)(F)F)c3c2C(F)(F)[C@@H]2C[C@H]32)n1)S(C)(=O)=O" , give its reported concentration at 1 week.
### Response 6.88

* * *

assay: Plasma pharmacokinetics after a single subcutaneous administration of LEN; assay type: in vivo, rhesus macaques; conditions: male, Indian-origin (outbred), rhesus monkey, plasma, subcutaneous, 10 mg/kg, Plasma LEN (Mean), 10 mg/kg sc, week 10 post dose
OBSERVATION TYPE: concentration at 10 week
Record the result as number plus unit.

### Prompt For the compound CC(C)(C#Cc1ccc(-c2ccc(Cl)c3c(NS(C)(=O)=O)nn(CC(F)(F)F)c23)c([C@H](Cc2cc(F)cc(F)c2)NC(=O)Cn2nc(C(F)(F)F)c3c2C(F)(F)[C@@H]2C[C@H]32)n1)S(C)(=O)=O [LEN, Lenacapavir] , give its reported concentration at 10 week.
### Response 8.41 nM

* * *

assay: Plasma pharmacokinetics after a single subcutaneous administration of LEN; type: in vivo, rhesus macaques; details: male, Indian-origin (outbred), rhesus monkey, plasma, subcutaneous, 75 mg/kg, Plasma LEN (Mean), 75 mg/kg sc, week 12 post dose
OBSERVATION TYPE: concentration at 12 week (µM)
The response must be a number in µM with no trailing unit.

### Prompt For the compound CC(C)(C#Cc1ccc(-c2ccc(Cl)c3c(NS(C)(=O)=O)nn(CC(F)(F)F)c23)c([C@H](Cc2cc(F)cc(F)c2)NC(=O)Cn2nc(C(F)(F)F)c3c2C(F)(F)[C@@H]2C[C@H]32)n1)S(C)(=O)=O [LEN, Lenacapavir] , give its reported concentration at 12 week.
### Response 0.0535

// provenance: paper PMC10425210
